Reference source for all entries: patent US20260226066A1

EC50 listing for selected compounds.
Tested on: A549
Experiment: A549 EC50 (cell assay, no method described)
Type: cell-based
Conditions: A549

# Compound, EC50
measured = [
    ("Cc1nnc(-c2cccc(-n3ncc4cc([S+]([O-])C5CC(F)(F)C5)cnc43)c2)[nH]1 (stereo not shown) [Compound 97B]", "≥ 1000 nM"),
    ("CCCC[S@+]([O-])c1cnc2c(cnn2-c2cccc(-c3nnc[nH]3)c2)c1 (single isomer, unassigned) [Compound 36B]", "100 to 1000 nM"),
    ("CC1CC([S+]([O-])c2cnc3c(cnn3-c3cccc(-c4nnc[nH]4)c3)c2)C1 (stereo not shown) [Compound 120B]", "≥ 1000 nM"),
]

Entry [O-][S+](c1cnc2c(cnn2-c2cccc(-c3ccnc(O)c3)c2)c1)C1CCC(F)(F)C1 (single isomer, unassigned) [Compound 3B] : reported EC50 = ?
≥ 1000 nM

----------
IC50 listing for selected compounds.
Biological target: 15-PGDH/HPGD (Homo sapiens)
Sequence (P15428 whole entry): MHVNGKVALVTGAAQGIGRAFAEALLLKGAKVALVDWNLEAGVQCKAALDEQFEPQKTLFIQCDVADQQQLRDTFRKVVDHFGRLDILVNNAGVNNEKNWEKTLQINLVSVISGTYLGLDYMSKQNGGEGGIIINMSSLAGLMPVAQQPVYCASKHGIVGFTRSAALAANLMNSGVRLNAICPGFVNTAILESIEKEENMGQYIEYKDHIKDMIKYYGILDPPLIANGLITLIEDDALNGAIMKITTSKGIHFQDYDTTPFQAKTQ
Experiment: hPGDH inhibitor screening biochemical assay
Conditions: 10 nM enzyme, fluorescence ex/em 340/485 nm

# Compound, IC50
measured = [
    ("CC(C)CC[S+]([O-])c1cnc2c(ccn2-c2cccc(-c3nnc[nH]3)c2)c1 (single isomer, unassigned) [Compound 54B]", "< 100 nM"),
]

Entry [O-][S+](c1cnc2c(cnn2-c2cccc(-c3nnc[nH]3)c2)c1)C1CCC(F)(F)C1 (single isomer, unassigned) [Compound 8C] : reported IC50 = ?
< 100 nM

Then what about the compound CCCC[S+]([O-])c1cnc2c(ccn2-c2cc(F)cc(NC(=O)OCC)c2)c1 (single isomer, unassigned) [Compound 56A] ?
< 100 nM

----------
Target: 15-PGDH/HPGD (Homo sapiens)
Test: hPGDH inhibitor screening biochemical assay
Conditions: 10 nM enzyme, fluorescence ex/em 340/485 nm
pIC50: −log10 of the molar value.
Value kind: pIC50

# Molecule, Reported result
measured = [
    ("Cc1cc(-c2cccc(-n3ncc4cc([S+]([O-])C5CCC(F)(F)C5)cnc43)c2)ccn1 (centres unmarked) [Compound 11C]", "6.00 to 7.00"),
    ("COC1CC([S+]([O-])c2cnc3c(cnn3-c3cccc(-c4nnc[nH]4)c3)c2)C1 (single isomer, unassigned) [Compound 105A]", "6.00 to 7.00"),
    ("COC1CC([S+]([O-])c2cnc3c(cnn3-c3cccc(-c4nnc[nH]4)c3)c2)C1 (single isomer, unassigned) [Compound 105D]", "> 7.00"),
    ("[O-][S+](c1cnc2c(cnn2-c2ccc3nc(N4CCOCC4)nn3c2)c1)C1CC(F)(F)C1 (centres unmarked) [Compound 117A]", "> 7.00"),
    ("[O-][S+](c1cnc2c(cnn2-c2cccc(-c3ccc(N4CCOCC4)nc3)c2)c1)C1CCC1 (centres unmarked) [Compound 95B]", "6.00 to 7.00"),
    ("COCC1CC([S+]([O-])c2cnc3c(cnn3-c3cccc(-c4nnc[nH]4)c3)c2)C1 (centres unmarked) [Compound 109B]", "6.00 to 7.00"),
]

Entry CCCC[S+]([O-])c1cnc2c(ccn2-c2cccc(-c3nnc[nH]3)c2)n1 (single isomer, unassigned) : reported pIC50 = ?
> 7.00

Then what about the molecule COCCC[S+]([O-])c1cnc2c(cnn2-c2cccc(-c3nnc[nH]3)c2)c1 (centres unmarked) [Compound 113B] ?
6.00 to 7.00

Then what about the molecule [O-][S+](c1cnc2c(cnn2-c2cccc(-c3ccc(O)nc3)c2)c1)C1CCC(F)(F)C1 (single isomer, unassigned) [Compound 5D] ?
> 7.00
